A collection of molecules and their measured AC50
Target: Cytochrome P450 2C9 (Homo sapiens)
Sequence (P11712 whole entry): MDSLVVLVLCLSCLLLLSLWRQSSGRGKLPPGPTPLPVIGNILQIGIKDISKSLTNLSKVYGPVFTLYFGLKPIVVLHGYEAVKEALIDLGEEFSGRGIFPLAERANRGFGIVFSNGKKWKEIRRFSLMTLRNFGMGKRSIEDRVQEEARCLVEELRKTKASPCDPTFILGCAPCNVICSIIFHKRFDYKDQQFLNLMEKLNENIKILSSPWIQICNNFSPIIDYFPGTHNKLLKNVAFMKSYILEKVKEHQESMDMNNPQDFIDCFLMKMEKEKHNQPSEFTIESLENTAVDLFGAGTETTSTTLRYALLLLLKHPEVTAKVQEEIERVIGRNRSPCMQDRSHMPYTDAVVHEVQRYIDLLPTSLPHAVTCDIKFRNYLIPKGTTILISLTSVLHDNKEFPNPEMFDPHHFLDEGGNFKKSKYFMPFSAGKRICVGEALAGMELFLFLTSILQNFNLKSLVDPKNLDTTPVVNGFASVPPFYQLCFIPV

Solved entries:
# MOLECULE, AC50
records = [
    ("CC1CCC(NC(=O)c2ccc(CS(=O)(=O)Cc3ccccc3F)o2)CC1 (stereo not given)", "17.8 µM (inconclusive)"),
    ("O=S(=O)(O)c1cc(/N=[N+](\\[O-])c2cc(S(=O)(=O)O)c3ccccc3c2)cc2ccccc12", "7.94 µM (inconclusive)"),
    ("CCCN(C(=O)Cc1n[nH]c(N)n1)C1(C(=O)Nc2ccccc2C)CCCCC1", "0.224 µM (inconclusive)"),
]

Recorded AC50 for O=C(O)c1ccccc1N[C@H](c1ccccc1)c1ccc2cccnc2c1O , please? 5.01 µM (inconclusive)

Recorded AC50 for CSc1nnc2c(n1)OC(C)N(C(=O)c1ccccc1)c1ccccc1-2 (stereo not given) , please? 31.6 µM (inconclusive)

Values were extracted from ChEMBL document CHEMBL1201862.
